Target: Hck (UniProt P08631)
Sequence (P08631 whole entry, looked up): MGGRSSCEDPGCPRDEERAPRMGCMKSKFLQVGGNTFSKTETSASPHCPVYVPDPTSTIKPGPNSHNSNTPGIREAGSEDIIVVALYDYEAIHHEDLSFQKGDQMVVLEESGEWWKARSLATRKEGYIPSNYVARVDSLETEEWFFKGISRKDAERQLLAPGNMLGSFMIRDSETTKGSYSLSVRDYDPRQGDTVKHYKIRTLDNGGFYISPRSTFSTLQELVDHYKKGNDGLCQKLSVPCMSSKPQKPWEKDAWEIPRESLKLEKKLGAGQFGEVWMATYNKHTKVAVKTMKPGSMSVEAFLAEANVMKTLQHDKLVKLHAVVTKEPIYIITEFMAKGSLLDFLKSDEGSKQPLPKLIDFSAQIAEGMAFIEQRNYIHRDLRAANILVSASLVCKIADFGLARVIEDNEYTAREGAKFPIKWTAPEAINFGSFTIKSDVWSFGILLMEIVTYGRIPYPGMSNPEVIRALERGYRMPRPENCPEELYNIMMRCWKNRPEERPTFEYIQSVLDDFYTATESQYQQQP
Experiment: phosphorylation enrichment, bacterial display (enrichment ratio); higher = better substrate or ligand; peptides without Tyr show the background;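 note: 11-residue human phosphosite peptides and single-mutation variants displayed on the E. coli surface, counted by deep sequencing, each peptide's frequency after selection divided by its frequency in the unselected input library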;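 note: frequency after pTyr selection over input frequency; kinase dosed for 20-30% of maximal phosphorylation in three min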
Attribute measured: phosphorylation enrichment

> print(dat)
                        sequence.code          attribute.measured  observed
1       PSSRDYKDNIK [PIGN_Y227_H229D]  phosphorylation enrichment     0.381
2     DRTVHYVDEKG [IFT140_Y216_G212R]  phosphorylation enrichment     0.441
3  VEKEKYVSFIS [JMJD1C_Y596_M591V_YF]  phosphorylation enrichment     0.577
4      AQQPIYIRVEG [NLRP7_Y318_V319I]  phosphorylation enrichment     0.733
5     TDRNLYSKNLV [CFAP58_Y501_S496T]  phosphorylation enrichment     0.654
6       SSEYHCVGGFY [CTSC_Y347_Y347C]  phosphorylation enrichment      1.72
7        GIPIQYPIISE [NOG_Y222_W217G]  phosphorylation enrichment     0.446
8            KPGLVYNKVNP [SPRED3_Y72]  phosphorylation enrichment     0.603

###

System: c-Src
Assay: phosphorylation enrichment, bacterial display (enrichment ratio); higher = better substrate or ligand; peptides without Tyr show the background
Threshold check on phosphorylation enrichment: at or above 0.5 gives 1 (yes), strictly below gives 0 (no).

> print(dat)
                          sequence.code  answer.label
 1      EKSREYHRLYE [PIK3R1_Y463_D464H]       1 (yes)
 2             DPEAAYTTRGG [EPHA3_Y779]        0 (no)
 3           KLFYIYTSGTT [SLC27A4_Y245]       1 (yes)
 4              QKFMAYLSQGG [HLCS_Y236]       1 (yes)
 5           ISGGGYRACPA [FGB_Y71_R74C]        0 (no)
 6      LNCIFYKDQTG [RS1_Y166_W163C_YF]       1 (yes)
 7           YIILIYAMKKK [SLCO1B1_Y645]        0 (no)
 8              KLGDVYVNDAF [PGK1_Y161]        0 (no)
 9       GSTLSYGRDGR [MATR3_Y158_P154S]        0 (no)
10          ILGRYYETSSI [PAX2_Y73_G76S]        0 (no)
11      FADIAYNFRRG [PAH_Y166_H170R_YF]        0 (no)
12          EELLRYAIVTP [POC5_Y37_H36R]        0 (no)
13     VECQVYAEDPF [PCCA_Y401_R399Q_YF]       1 (yes)
14             SPDMLYQYLKQ [RPAP3_Y567]       1 (yes)
15       QCTSHYPEHVC [SART3_Y541_D540H]        0 (no)
16  YRNKPYISWPS [CDC42BPB_Y1638_S1633Y]       1 (yes)
17      WLFFRYLPIGC [ATP2A2_Y836_A838P]        0 (no)
18         VFDHIYTTQSD [RET_Y928_L923V]       1 (yes)
19       EGGFAYVPLKD [PRIM2_Y208_D204G]        0 (no)
